- TARGET_OR_TEST_SYSTEM: AHR (Homo sapiens)
- PROTOCOL: In vitro assay 1: antagonism in human cell line (transactivation assay, kynurenic acid prestimulated)
- ASSAY_CONTEXT: Assay 1: AHR-luc Hum Antagonism IC50 [M], 150 μM kynurenic acid, 20 hours, firefly luciferase
VALUE_TYPE: IC50 (M)
Give bare numbers, in M.

INSERT INTO measurements (compound, value_type, reported_measurement) VALUES
  ('CC[C@@H](CO)NC(=O)c1cc(-c2ccc(Cl)cc2)nn(-c2cccc(Cl)c2)c1=O [Example 60]', 'IC50', '6.6e-08'),
  ('O=C(N[C@H]1CCC[C@@H]1O)c1cc(-c2ccc(Cl)cc2)nn(-c2cccc(F)c2)c1=O [Example 115]', 'IC50', '2.72e-08'),
  ('O=C(NCC(O)C(F)F)c1cc(-c2ccc(C(F)(F)F)cc2)nn(-c2cccc(F)c2)c1=O (single isomer, unassigned; (+)) [Example 328]', 'IC50', '4.47e-08'),
  ('O=C(NCC(O)C(F)(F)F)c1cc(-c2ccc(Cl)cc2)nn(-c2cc(F)cc(F)c2)c1=O (single isomer, unassigned) [Example 46]', 'IC50', '5.64e-08'),
  ('O=C(NCC(O)C(F)(F)F)c1cc(-c2ccc(OC(F)(F)F)cc2)nn(-c2cccc(F)c2)c1=O (stereo not drawn) [Example 182]', 'IC50', '3.41e-08'),
  ('O=C(NC(CO)C1CCOC1)c1cc(-c2ccc(OC(F)F)cc2)nn(-c2cccc(F)c2)c1=O (single isomer, unassigned) [Example 147]', 'IC50', '4.66e-07'),
  ('O=C(N[C@H]1COC[C@@H]1O)c1cc(-c2ccc(N3CCOCC3)cc2)nn(-c2cccc(F)c2)c1=O (relative stereo) [Example 378]', 'IC50', '2.48e-07'),
  ('Cc1ccc(-c2cc(C(=O)NC(C)CO)c(=O)n(-c3cccc(F)c3)n2)cc1C (stereo not drawn) [Example 88]', 'IC50', '1.46e-07');

Each compound below has a reported value. Please supply its IC50.
1. CC[C@@H](CO)NC(=O)c1cc(-c2ccc(OC)cc2)nn(-c2cccc(F)c2)c1=O [Example 298]
2. O=C(NC[C@H](O)CO)c1cc(-c2ccc(Cl)cc2)nn(-c2cccc(F)c2)c1=O [Example 156]
3. CC(O)CCNC(=O)c1cc(-c2ccc(C(F)(F)F)cc2)nn(-c2cccc(F)c2)c1=O (racemic) [Example 247]

["3.18e-08", "1.99e-07", "8.35e-08"]

Each compound below has a reported value. Please supply its IC50.
1. CC(C)(O)CNC(=O)c1cc(-c2ccc(Cl)cc2)nn(-c2cccc(F)c2)c1=O [Example 188]
2. Cc1ccc(-c2cc(C(=O)N[C@@H](C)CO)c(=O)n(-c3cc(F)cc(F)c3)n2)cc1 [Example 55]
3. COC[C@H](CO)NC(=O)c1cc(-c2ccc(Cl)cc2)nn(-c2cccc(F)c2)c1=O [Example 229]
4. COc1ccc(-c2cc(C(=O)N[C@@H]3CCCC[C@H]3O)c(=O)n(-c3cccc(F)c3)n2)cc1 (relative stereo) [Example 152]

7.88e-08
1.8e-08
1.5e-07
1.32e-07

###

- TARGET_OR_TEST_SYSTEM: AHR (Homo sapiens, UniProt P35869)
- Sequence (P35869 11-848): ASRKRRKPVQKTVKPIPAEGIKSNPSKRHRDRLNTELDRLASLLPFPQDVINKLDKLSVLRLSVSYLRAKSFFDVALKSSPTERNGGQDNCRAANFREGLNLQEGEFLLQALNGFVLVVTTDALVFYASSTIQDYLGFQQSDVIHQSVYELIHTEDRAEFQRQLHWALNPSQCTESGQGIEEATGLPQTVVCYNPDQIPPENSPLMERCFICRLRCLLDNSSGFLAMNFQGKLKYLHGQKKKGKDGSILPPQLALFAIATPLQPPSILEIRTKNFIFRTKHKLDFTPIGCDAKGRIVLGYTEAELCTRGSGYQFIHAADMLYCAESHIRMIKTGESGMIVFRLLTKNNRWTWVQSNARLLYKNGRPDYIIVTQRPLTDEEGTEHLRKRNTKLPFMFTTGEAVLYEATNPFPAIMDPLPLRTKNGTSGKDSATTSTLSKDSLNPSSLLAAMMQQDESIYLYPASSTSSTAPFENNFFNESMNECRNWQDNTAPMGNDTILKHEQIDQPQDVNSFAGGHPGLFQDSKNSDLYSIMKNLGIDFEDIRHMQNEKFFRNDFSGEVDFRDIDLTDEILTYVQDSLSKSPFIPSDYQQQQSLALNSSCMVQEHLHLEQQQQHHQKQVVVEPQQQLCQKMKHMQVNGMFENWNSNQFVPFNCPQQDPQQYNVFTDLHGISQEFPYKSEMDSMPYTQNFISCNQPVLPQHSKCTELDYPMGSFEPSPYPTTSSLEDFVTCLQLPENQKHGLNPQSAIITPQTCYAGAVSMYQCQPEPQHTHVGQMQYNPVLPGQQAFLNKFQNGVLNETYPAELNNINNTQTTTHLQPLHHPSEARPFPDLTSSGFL
- PROTOCOL: In vitro assay 1: antagonism in human cell line (transactivation assay, kynurenic acid prestimulated)
- ASSAY_CONTEXT: Assay 1: AHR-luc Hum Antagonism IC50 [M], 150 μM kynurenic acid, 20 hours, firefly luciferase
VALUE_TYPE: IC50 (M)
Numbers only, in M.

Worked cases, answers included:
INSERT INTO measurements (compound, target_or_test_system, reported_measurement) VALUES
  ('Cc1ccc(-c2cc(C(=O)NCC(O)C(F)(F)F)c(=O)n(-c3cc(F)cc(F)c3)n2)cc1 (stereo not shown) [Example 52]', 'AHR (Homo sapiens, UniProt P35869)', '1.17e-08'),
  ('O=C(NC[C@H](O)C(F)(F)F)c1cc(-c2ccc(CF)cc2)nn(-c2cccc(F)c2)c1=O [Example 397]', 'AHR (Homo sapiens, UniProt P35869)', '1.8e-07'),
  ('CC(CCO)NC(=O)c1cc(-c2ccc(Cl)cc2)nn(-c2cccc(F)c2)c1=O (single isomer, unassigned; (+)) [Example 207]', 'AHR (Homo sapiens, UniProt P35869)', '6.29e-08');

In the following, a different compound is considered.
Given the entry N#Cc1cccc(-n2nc(-c3ccc(Cl)cc3)cc(C(=O)NCC(O)C(F)(F)F)c2=O)c1 (stereo not shown) [Example 362] , report its measured IC50.
2.31e-07

###

- TARGET_OR_TEST_SYSTEM: AHR (Homo sapiens)
- PROTOCOL: In vitro assay 2: agonism in human cell line (transactivation assay)
- ASSAY_CONTEXT: read-out: Assay 2: AHR-luc Hum Agonism IC50, no kynurenic acid, 20 hours, firefly luciferase
pIC50: −log10 of the molar value.
For each record, write down the corresponding pIC50.

INSERT INTO assay_data (molecule, value_type, reported_measurement) VALUES
  ('O=C(NCC(O)C(F)(F)F)c1cc(-c2ccc(Cl)cc2)nn(-c2cc(F)cc(F)c2)c1=O (single isomer, unassigned) [Example 46]', 'pIC50', '< 4.70'),
  ('O=C(NC(CO)C1CCOC1)c1cc(-c2ccc(OC(F)(F)F)cc2)nn(-c2cccc(F)c2)c1=O (single isomer, unassigned) [Example 177]', 'pIC50', '< 4.70');

Given the entry CC(O)C(C)NC(=O)c1cc(-c2ccc(OC(F)F)cc2)nn(-c2cccc(F)c2)c1=O (single isomer, unassigned) [Example 142] , report its measured pIC50.
< 4.70

###

- TARGET_OR_TEST_SYSTEM: UniProt:P35869
- PROTOCOL: In vitro assay 1: antagonism in human cell line (transactivation assay, kynurenic acid prestimulated)
- ASSAY_CONTEXT: Assay 1: AHR-luc Hum Antagonism IC50 [M], 150 μM kynurenic acid, 20 hours, firefly luciferase
VALUE_TYPE: IC50 (M)
Answers are plain numbers, in M.

INSERT INTO results (compound, target_or_test_system, value_type, reported_measurement) VALUES
  ('O=C(NCC(O)C(F)(F)F)c1cc(-c2ccc(Cl)cc2)nn(-c2ccccc2)c1=O (single isomer, unassigned) [Example 78]', 'UniProt:P35869', 'IC50', '2.66e-07'),
  ('O=C(N[C@@H](CO)Cc1ccccc1)c1cc(-c2ccc(C(F)(F)F)cc2)nn(-c2cccc(F)c2)c1=O [Example 252]', 'UniProt:P35869', 'IC50', '6.43e-06'),
  ('O=C(N[C@@H]1CCCC[C@@H]1O)c1cc(-c2ccc(Cl)cc2)nn(-c2cccc(F)c2)c1=O (single isomer, unassigned) [Example 104]', 'UniProt:P35869', 'IC50', '1.57e-08'),
  ('O=C(N[C@@H]1COC[C@@H]1O)c1cc(-c2ccc(C(F)(F)F)cc2)nn(-c2cccc(F)c2)c1=O (racemic) [Example 341]', 'UniProt:P35869', 'IC50', '8.45e-09'),
  ('O=C(NCC(O)C(F)(F)F)c1cc(-c2ccc(Cl)c(F)c2)nn(-c2cc(F)cc(F)c2)c1=O (stereo not drawn) [Example 403]', 'UniProt:P35869', 'IC50', '3.1e-07');

In the following, a different compound is considered.
Given the entry CC(CO)CNC(=O)c1cc(-c2ccc(Cl)cc2)nn(-c2cccc(F)c2)c1=O (single isomer, unassigned; (-)) [Example 202] , report its measured IC50.
1.02e-07

###

- Tested on: AHR-regulated gene CYP1A1
- PROTOCOL: In vitro assay 3: AHR-regulated CYP1A1 expression in human cell line (U937, qPCR)
- ASSAY_CONTEXT: read-out: Assay 3: Hum CYP1A1 Antagonism IC50; U937 cells, 200 μM KA, 6 hours, qPCR
pIC50: −log10 of the molar value.
Parameter threshold = 7. Response is True when pIC50 meets or exceeds it, else False.

INSERT INTO results (compound, label) VALUES
  ('O=C(NC(CO)C1CCOC1)c1cc(-c2ccc(OC(F)(F)F)cc2)nn(-c2cccc(F)c2)c1=O (single isomer, unassigned) [Example 177]', 'False'),
  ('CC(NC(=O)c1cc(-c2ccc(C(F)(F)F)cc2)nn(-c2cccc(F)c2)c1=O)C(O)C(F)(F)F (single isomer, unassigned) [Example 270]', 'True');

Alright, here's another compound for you.
Given the entry O=C(NCC(O)C(F)(F)F)c1cc(-c2ccc(Cl)cc2)nn(-c2cccc(F)c2)c1=O (single isomer, unassigned) [Example 26] , answer whether its pIC50 meets or surpasses 7.
True

src = patent US11040035B2
